For each entry below, report its %Inh value.
- Test system: PHKG2
- EXPERIMENTAL_PARAMETERS: concentration: 1 μM, replicates: in singlicate; n = 1;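 note: KINOMEscan kinase panel screen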
Express it in %; write the number only.

Query string: Which %Inh value is on record for O=c1cc(N2CCOCC2)nc2n(Cc3cccc(Cl)c3Cl)c3ccccc3n12 ?
Result string: 3

Query string: Look up %Inh: CS(=O)(=O)CCNCc1nc(-c2ccc3ncnc(Nc4ccc5c(cnn5Cc5ccccc5)c4)c3c2)cs1.Cl.Cl
Result string: 0

Query string: Sample COc1ccc(CSc2nnc(-c3ccc4c(c3)CCO4)o2)cc1 — what was its %Inh?
Result string: 25

Query string: Given O=C(Nc1n[nH]c2cc(-c3ccsc3)ccc12)C1CC1 , state its recorded %Inh.
Result string: 0

Query string: Suppose we examine the molecule CS(=O)(=O)CCNCc1nc(-c2ccc3ncnc(Nc4ccc(OCc5ccccc5)c(Cl)c4)c3c2)cs1.Cl ; what %Inh value has been reported?
Result string: 0

Query string: Item under review: CSc1ccc(-c2nc3n(c2-c2ccncc2)CCC3)cc1 . Reported %Inh?
Result string: 0

Query string: Consider the molecule NS(=O)(=O)c1cccc(N/C=C2\C(=O)Nc3ccc(S(=O)(=O)Cc4c(Cl)cccc4Cl)cc32)c1 and give its measured %Inh.
Result string: 0

Query string: Look at this molecule and give its reported %Inh. Cc1ccc(NC(=O)Nc2ccccc2)cc1-c1ccc(C(=O)Nc2ccncc2)cc1
Result string: 2

Query string: Give its %Inh value. Item: Cc1ccc(NC(=O)Nc2ccc(Cl)cc2)cc1-c1ccc(C(=O)Nc2ccncc2)cc1
Result string: 0

Query string: Give the measured %Inh of CNC(=O)c1ccc(C)c(-n2c(C)cc(OCc3ccc(F)cc3F)c(Br)c2=O)c1 .
Result string: 0

Query string: Record request: %Inh value, item CNCc1ccc2nc(NC(=O)c3ccc(C(C)(C)C)cc3)cn2c1
Result string: 0

Query string: Which %Inh is listed for CC(=O)c1cccc(NC(=O)NC2CCN(c3ccnc(Nc4ccc(F)cc4)n3)C2)c1 (stereo not drawn) ?
Result string: 1

Query string: Name the reported %Inh value associated with the molecule Fc1ccc(-c2nc3n(c2-c2ccncc2)CCS3)cc1
Result string: 0

Query string: I would be grateful if you could share the reported %Inh for COc1ccc(Nc2nccc(N3CCC(NC(=O)c4cc5ccccc5s4)C3)n2)cc1 (stereo not drawn) .
Result string: 0

Query string: Reported %Inh for Cc1c(Cn2c3ccccc3n3c(=O)cc(N4CCOCC4)nc23)cccc1C(F)(F)F : what is it?
Result string: 18

Query string: Please report the recorded %Inh for O=C1NC(=O)C(c2ccc(Cl)cc2)=C1Nc1ccc(O)cc1 .
Result string: 0

Query string: Entry under review: COc1ccc(Nc2nccc(-c3ccc(NC(=O)c4cc5cc(F)ccc5[nH]4)cc3)n2)cc1 . Reported %Inh?
Result string: 0

Query string: Endpoint output: %Inh of Nc1nccc(-c2c(-c3ccc(F)cc3)ncn2C2CCN(Cc3ccccc3)CC2)n1 . Value?
Result string: 0

----------
- System: CDK3
- EXPERIMENTAL_PARAMETERS: concentration: 1 μM, replicates: in singlicate; n = 1
Lab note: anything with %Inh at or over 6% counts as 1 (yes); the rest go in 0 (no).

Query string: Does the compound Cc1ccc(NC(=O)Nc2ccccc2)cc1-c1ccc(C(=O)Nc2ccncc2)cc1 have recorded %Inh that is 6% or more?
Result string: 0 (no)

Query string: Reported %Inh at or above 6%? CCc1ccc(-c2ccc3c(c2)-c2n[nH]cc2S(=O)(=O)N3C)cc1
Result string: 0 (no)

Query string: Determine whether measured %Inh meets or exceeds 6% for CCn1c(-c2c(N)noc2C)nc2cnccc21
Result string: 0 (no)

Query string: Could you tell me if the measured %Inh of CCn1c(-c2ccccc2)nc2cnccc21 reaches 6% or more?
Result string: 1 (yes)

Query string: Check the entry CC[C@@H]1CO[C@H](C(=O)Nc2ccccc2)CN1c1cc(-c2ccc3c(N)n[nH]c3c2)nc(NC)n1 : does %Inh equal or exceed 6%?
Result string: 1 (yes)

Query string: Tell me whether %Inh is at least 6% here: CNC(=O)c1ccc(C)c(-n2c(C)cc(OCc3ccc(F)cc3F)c(Br)c2=O)c1
Result string: 1 (yes)

Query string: Assess whether reported %Inh for NS(=O)(=O)c1cccc(N/C=C2\C(=O)Nc3ccc(S(=O)(=O)Cc4c(Cl)cccc4Cl)cc32)c1 sits at 6% or higher.
Result string: 1 (yes)

Query string: Textbook exercise: given the entry c1ccc(-c2ccnc3[nH]ccc23)cc1 , state whether its %Inh is greater than or equal to 6%.
Result string: 0 (no)

Query string: Has COc1cccc(NC(=O)Nc2ccc(C)c(-c3ccc(C(=O)Nc4ccncc4)cc3)c2)c1 a recorded %Inh greater than or equal to 6%?
Result string: 0 (no)

Query string: Check this compound for %Inh at or above 6%: Cn1cncc1-c1cc2c(Nc3ccc(OCc4ccccc4)cc3)ncnc2cn1
Result string: 1 (yes)

Query string: Please indicate if the recorded %Inh for COc1ccc(Nc2nccc(-c3ccc(NC(=O)c4cc5cc(F)ccc5[nH]4)cc3)n2)cc1 meets or exceeds 6%.
Result string: 0 (no)

Query string: Hello, I need to know if O=C(Nc1n[nH]c2nc(-c3cccs3)c(Br)cc12)C1CC1 has measured %Inh not below 6%. Thanks!
Result string: 1 (yes)

Query string: Does the reported %Inh for Nc1cccc(-c2ccc3c(N)n[nH]c3c2)n1 fall at or above the 6% mark?
Result string: 1 (yes)

Query string: Identify whether the reported %Inh of the following compound is 6% or greater: CNc1nc(-c2ccc3c(N)n[nH]c3c2)cc(N2C[C@@H](C(=O)Nc3ccccc3)CC[C@H]2C)n1
Result string: 0 (no)

Recorded values, source paper PMC5540273.
